Test system: Vero E6
Test: cell viability relative to DMSO; higher = less toxic
Details: 72 h; 10000 nM
Please go through the items and note down their cell viability.
Give bare numbers, in %.

Examples with their reported cell viability follow.
{"Molecule": "Cc1nc(Nc2ccc(F)cc2)nc(N2CCc3ccccc3C2C)c1C (stereo not drawn)", "cell viability [%]": 95.8}
{"Molecule": "COc1ccc(Nc2ncnc3ccc(OC)cc23)cc1", "cell viability [%]": 85.2}
{"Molecule": "O=S(=O)(O)CCS", "cell viability [%]": 101}
{"Molecule": "N#Cc1ccc(-c2csc(NN=C3CCCC3)n2)cc1", "cell viability [%]": 105}
{"Molecule": "CC(C)c1ccc(-c2cc(=O)c3ccccc3o2)cc1", "cell viability [%]": 61.5}
{"Molecule": "CN1CCCCC1Cn1cc(C(=O)c2cc([N+](=O)[O-])ccc2I)c2ccccc21 (stereo not drawn)", "cell viability [%]": 106}
{"Molecule": "CC1(C)N=C(N)N=C(N)N1OCCCOc1cc(Cl)c(Cl)cc1Cl", "cell viability [%]": 108}
{"Molecule": "C/C=C1\\[C@H]2C=C(C)C[C@]1(N)c1ccc(=O)[nH]c1C2 [(-)-Huperzine A]", "cell viability [%]": 107}

Take each entry in turn and give its cell viability.
1. Cc1ccc(NC(=O)c2cccc(N(C)C)c2)cc1NC(=O)c1ccc(O)cc1
2. CN(CCOc1ccc(-c2ccc3c(c2)OCO3)cc1C(C)(C)C)CC(=O)O
3. O=C(O)c1cn(C2CC2)c2cc(N3CCNCC3)c(F)cc2c1=O
4. COc1ccc(CNC(=O)c2sc3nc(C)cc(C)c3c2N)cc1
5. CCC(=O)O[C@]1(C(=O)CCl)[C@@H](C)C[C@H]2[C@@H]3C[C@H](F)C4=CC(=O)C=C[C@]4(C)[C@@]3(F)[C@@H](O)C[C@@]21C [halobetasol-propionate]

**Result**
1. 102
2. 98.7
3. 97.1
4. 94.4
5. 106

Hey, just so you know, these numbers are from the supplement of paper PMC13380429.
